target: T1, Murine serum albumin (MSA) (mouse, UniProt P07724 25-608); assay: ELISA on coated murine albumin, anti-human Fc HRP, A650, one site-total binding fit
T1 construct: Bought protein (Sigma); also called murine albumin; mouse albumin
# Bmax per entry

Past entries and their recorded results:
- Binder: "4A01v4 (Fc fusion, not shown: a dimerising Fc or GST; small tags and cut ends, also called Hz4A01v4) VHH: EVQLVESGGGEVQPGGSLRLSCAASGFAFSTSGMVWVRQAPGKGLEWVSTISDESRIIRYAESVKGRFTISRDNAKNTLYLQMNSLRAEDTAVYYCATYRAGSRIGSYEDYYRGQGTLVTVKP"
  Recorded value: "1.1 A650"
- Binder: "4A01v6 (Fc fusion, not shown: a dimerising Fc or GST; small tags and cut ends, also called Hz4A01v6) VHH: EVQLVESGGGEVQPGGSLRLSCAASGFAFSTSGMVWVRQAPGKGLEWVSTISDSGRIIRYAESVKGRFTISRDNAKNTLYLQMNSLRAEDTAVYYCATYRAGSRIGSYEDYYRGQGTLVTVKP"
  Recorded value: "1.09 A650"
- Binder: "4A01v8 (Fc fusion, not shown: a dimerising Fc or GST; small tags and cut ends, also called Hz4A01v8) VHH: EVQLVESGGGEVQPGGSLRLSCAASGFAFSTSGMVWVRQAPGKGLEWVSTISDNARIIRYAESVKGRFTISRDNAKNTLYLQMNSLRAEDTAVYYCATYRAGSRIGSYEDYYRGQGTLVTVKP"
  Recorded value: "1.1 A650"

Lab note: next binder to report on.
Find the recorded Bmax belonging to 4A01v5 (Fc fusion, not shown: a dimerising Fc or GST; small tags and cut ends, also called Hz4A01v5) VHH: EVQLVESGGGEVQPGGSLRLSCAASGFAFSTSGMVWVRQAPGKGLEWVSTISDEGRIIRYAESVKGRFTISRDNAKNTLYLQMNSLRAEDTAVYYCATYRAGSRIGSYEDYYRGQGTLVTVKP and report it.
1.09 A650
